Sourced from PubChem BioAssay (NCI)

Test system: T-47D breast
assay remarks: NCI tumour cell line growth inhibition, 48 h
The compounds listed here are annotated with their TGI.
metric: TGI

[[record]]
compound = "COC(=O)[C@]1(C)CCCn2c(=O)n(-c3ccccc3)c(=O)n21"
result = "> 100 µM"

[[record]]
compound = "CCOc1ccc(NC(=O)Nc2cc(C(C)C)ccc2C)cc1"
result = "> 100 µM"

[[record]]
compound = "CCOC(=O)NNC(=O)NCCNC(=O)NNC(=O)OCC"
result = "> 100 µM"

[[record]]
compound = "O=C(Cn1ccnc1[N+](=O)[O-])N(CCO)CCO"
result = "> 250 µM"

[[record]]
compound = "COc1ccc(-n2sc3ncc(-c4ccccc4)cc3c2=O)cc1"
result = "> 100 µM"

[[record]]
compound = "O=C(NNc1nc2cc(F)ccc2n2c(CN3CCOCC3)ccc12)c1ccccc1"
result = "2.24 µM"

[[record]]
compound = "O=S(=O)(c1cccc(C(F)(F)F)c1)N1c2ccccc2-n2cccc2C1c1cccnc1 (stereo not given)"
result = "> 70.4 µM"

[[record]]
compound = "CCOC(=O)C1NCCc2c1[nH]c1ccccc21 (stereo not given)"
result = "> 10 µM"

[[record]]
compound = "C[C@@H]1O[C@@H](O[C@H]2C[C@@H](O)[C@]3(CO)C4C(CC[C@]3(O)C2)[C@@]2(O)CC[C@H](C3=CC(=O)OC3)[C@@]2(C)C[C@H]4O)[C@H](O)[C@H](O)[C@H]1O (stereo not given in full)"
result = "0.0847 µM"

[[record]]
compound = "COc1ccc(OC)c(/C=C/[N+](=O)[O-])c1"
result = "46.8 µM"


* * *

Tested on: K-562 leukemia
assay remarks: NCI tumour cell line growth inhibition, 48 h
Where a SMILES comes first, the peptide text is derived from it. [ ]: non-standard residue; d: D form. The star is where a group is joined. hSer = N[CH](CCO)C(=O)O; Boc = CC(C)(C)OC(=O)*
# Lookup of reported TGI keyed by entry
metric: TGI

[[record]]
molecule = "COc1ccc(C2C3=C(NC(=O)C2C#N)c2ccc4ccccc4c2OCC3)cc1 (stereo not given)"
target_or_test_system = "K-562 leukemia"
metric = "TGI"
result = "> 100 µM"

[[record]]
molecule = "CCCOC(=O)N[C@H]1CCc2c(Br)c(OC)c(OC)c(OC)c2-c2ccc(SC)c(=O)cc21"
target_or_test_system = "K-562 leukemia"
metric = "TGI"
result = "> 100 µM"

[[record]]
molecule = "COC(=O)N1[C@H]2Cc3c(OC)c(C)c(OC)c(OC)c3[C@@H]1/C(=C\\c1cc(OC)c(OC)c(C)c1OC)N(Cc1ccccc1)C2=O"
target_or_test_system = "K-562 leukemia"
metric = "TGI"
result = "> 100 µM"

[[record]]
molecule = "CCOC(=O)C1NCCc2c1[nH]c1ccccc21 (stereo not given)"
target_or_test_system = "K-562 leukemia"
metric = "TGI"
result = "> 10 µM"

[[record]]
molecule = "COc1ccc(-n2c(CCCC(=O)O)nc3c2C(=O)c2ccccc2C3=O)cc1"
target_or_test_system = "K-562 leukemia"
metric = "TGI"
result = "> 100 µM"

[[record]]
molecule = "CCCCCCCCCCCCCCCC[N+](C)(C)Cc1ccc(C[N+](C)(C)CCCCCCCCCCCCCCCC)cc1"
target_or_test_system = "K-562 leukemia"
metric = "TGI"
result = "8.52 µM"

[[record]]
molecule = "NCCC1(N)CCNCC1"
target_or_test_system = "K-562 leukemia"
metric = "TGI"
result = "> 100 µM"

[[record]]
molecule = "N#CI1OC(=O)c2ccccc21"
target_or_test_system = "K-562 leukemia"
metric = "TGI"
result = "> 100 µM"

[[record]]
molecule = "CN(C(=O)C1CCCCC1)c1ccccc1I(=O)=O"
target_or_test_system = "K-562 leukemia"
metric = "TGI"
result = "27.4 µM"

[[record]]
molecule = "COCCC(NC(=O)C(CC(C)C)NC(=O)OC(C)(C)C)C(N)=O (stereo not drawn) (Boc-Leu-[hSer](Me)-NH2; configuration not given here)"
target_or_test_system = "K-562 leukemia"
metric = "TGI"
result = "> 100 µM"


* * *

Tested on: SNB-75 CNS
assay remarks: NCI tumour cell line growth inhibition, 48 h
Listed here are compounds together with their documented TGI.
metric: TGI

[[record]]
compound = "O=C1CCC2(c3ccc(F)cc3)Nc3ccccc3N12 (configuration not stated)"
result = "> 100 µM"

[[record]]
compound = "COc1ccc(-n2c(CCCC(=O)O)nc3c2C(=O)c2ccccc2C3=O)cc1"
result = "> 100 µM"

[[record]]
compound = "CN(C)CC1CCC/C(=C\\c2ccc(N(C)C)cc2)C1=O (configuration not stated)"
result = "30.7 µM"

[[record]]
compound = "COc1ccc2c(c1)O/C(=C\\c1cccc(OCC(=O)Nc3nc4ccccc4s3)c1)C2=O"
result = "> 24 µM"

[[record]]
compound = "COc1cc(OC)cc(N2CCC(c3c(N)nc(N)nc3Cl)CC2)c1"
result = "> 100 µM"

[[record]]
compound = "COC(=O)OCC1OC(N2C(=O)NC(=O)C(I)C2N=[N+]=[N-])CC1OC(=O)OC (configuration not stated)"
result = "> 100 µM"

[[record]]
compound = "CCOC(=O)C1(Cc2ccc(C)cc2)Cc2ccc(C)cc2C1=O (configuration not stated)"
result = "> 100 µM"

[[record]]
compound = "CCC1(O)C=CC(=O)C=C1"
result = "> 96.1 µM"

[[record]]
compound = "c1ccc2c(c1)O[As](O[As]1Oc3ccccc3O1)O2"
result = "12 µM"

[[record]]
compound = "Oc1c(Cl)c2nccnc2c2ccccc12"
result = "> 100 µM"

[[record]]
compound = "CCc1nc2c(O)ccc(O)c2nc1C"
result = "37.6 µM"

[[record]]
compound = "CCCCN(CC)C(=O)C(=O)C1C(=O)Nc2ccccc2S1=O (configuration not stated)"
result = "> 100 µM"


* * *

Test system: HCT-116 colon
assay remarks: NCI tumour cell line growth inhibition, 48 h
Measured GI50, listed per entry.
metric: GI50

[[record]]
compound = "COc1ccc(C(CC(=O)c2ccccc2)C(C(=O)c2ccccc2)C(c2ccc(OC)cc2)C2C(=O)NC(=O)NC2=O)cc1 (stereo not given)"
result = "14200 nM"

[[record]]
compound = "C=CC1CC12C(=O)C1OC2(C)C2C(=O)c3ccccc3C(=O)C12 (stereo not given)"
result = "> 100000 nM"

[[record]]
compound = "COc1ccc(-c2nc(-c3nc4ccc(F)cc4[nH]3)cc3c2[nH]c2ccccc23)cc1"
result = "2690 nM"

[[record]]
compound = "Cc1cc(N(CCCl)CCCl)ccc1C=Nc1cccnc1"
result = "22700 nM"

[[record]]
compound = "OCCN1CCN(CCCN2c3ccccc3Sc3ccc(C(F)(F)F)cc32)CC1"
result = "1550 nM"

[[record]]
compound = "COC1=CC(c2ccc[nH]2)=N/C1=C\\c1[nH]c(C)c(C(=O)CCC(=O)Oc2ccc3c(c2)CCC2C3CC[C@]3(C)C(=O)CC[C@@H]23)c1C (stereo not given in full)"
result = "773 nM"

[[record]]
compound = "Cn1ncc2c(Nc3ccc(Br)cc3)nc(Nc3ccc(Br)cc3)nc21"
result = "3220 nM"

[[record]]
compound = "O=C1C=C(SCCO)C(=O)c2ccccc21"
result = "1800 nM"

[[record]]
compound = "[Cu+2].[Cu+2].[O-]c1ccccc1C=Nc1ccccc1[O-].[O-]c1ccccc1C=Nc1ccccc1[O-]"
result = "2470 nM"

[[record]]
compound = "COc1cc(-c2c3c(cn2S(=O)(=O)c2ccccc2)-c2nc(N)sc2CC3)cc(OC)c1OC"
result = "515 nM"

[[record]]
compound = "Cn1ncc2cc(-c3cnc(N)c(Cl)c3N3CCC4(CCNC4=O)CC3)ccc21"
result = "37400 nM"

[[record]]
compound = "O=C(NNc1nc2cc(F)ccc2n2c(CN3CCOCC3)ccc12)c1ccccc1"
result = "139 nM"

[[record]]
compound = "O=C1c2ccn(CCCCN3CCOCC3)c2C(=O)c2c1c(O)c1ccccc1c2O"
result = "7030 nM"

[[record]]
compound = "COc1ccc(-c2cc3c4c(nc5ccccc5c4c2)CC(c2cc(OC)c(OC)c(OC)c2)O3)cc1 (stereo not given)"
result = "1310 nM"

[[record]]
compound = "CCC(=O)Sc1ccccc1C(=O)Nc1ccc(Cl)cc1"
result = "3580 nM"

[[record]]
compound = "O=C(c1ccccc1)c1ccc(-c2ccc(O)cc2)cc1"
result = "8420 nM"

[[record]]
compound = "COc1ccc2c(c1)C(=O)c1c-2c(NCCCN(C)C)nc2ccccc12"
result = "1250 nM"

[[record]]
compound = "COc1ccc(-c2cc3cccc(OC)c3c(=O)o2)cc1OC"
result = "29600 nM"

[[record]]
compound = "COc1ccc2c(c1)O/C(=C\\c1cccc(OCC(=O)Nc3nc4ccccc4s3)c1)C2=O"
result = "24100 nM"

[[record]]
compound = "COc1ccc(/C=C2/CN(C(=O)c3ccccc3F)C/C(=C\\c3ccc(OC)cc3)C2=O)cc1"
result = "392 nM"

